We begin with a simple list: items and their reported TGI.
# Test system: SF-295 CNS
# assay method text: NCI tumour cell line growth inhibition, 48 h
Use µM as the unit, but write only the number.

molecule="CC(=O)O[C@@H]1C=CC(=O)C2(CC(=O)O[C@@H]2/C=C(\\C)CCC=C(C)C)C1 (stereo not given in full)" target="SF-295 CNS" endpoint_name=TGI value_units=µM meas_value=4.07
molecule=COc1cc[c]([Hg][Cl])cc1 target="SF-295 CNS" endpoint_name=TGI value_units=µM meas_value=29.7

Name the recorded TGI of the item CC1(C)CCC[C@]2(C)[C@@H]1CC[C@@]13O[C@@H]1C1=C(CO)C(=O)O[C@]14O[C@@H]4[C@@H]23 in your answer.
32.3

Name the recorded TGI of the item COC(=O)C1=C(C)N2CCCOC2(C)C(C(=O)OC)C1c1cccc(Cl)c1 (stereo not given) in your answer.
88.9

----------
# Tested on: KM12 colon
# assay method text: NCI tumour cell line growth inhibition, 48 h
We begin with a simple list: items and their reported TGI.

Record excerpt, results attached:
compound=CN(C)CCCn1cnc2ncccc2c1=O meas_value="> 100 µM"
compound=CCCCc1ccc2nc(NC(=O)OC)[nH]c2c1 meas_value="1.3 µM"
compound=COc1c(O)c2ccccc2c2cc(O)ccc12 meas_value="25.7 µM"
compound=C=Nc1ccc([N+](=O)[O-])cc1 meas_value="> 100 µM"
compound=N#Cc1c([N+](=O)[O-])cc(C(F)(F)F)cc1[N+](=O)[O-] meas_value="12.4 µM"
compound="COc1cc(C2c3cc4c(cc3C(O)C3CCC(=O)N23)OCO4)cc(OC)c1OC (stereo unspecified)" meas_value="> 100 µM"
compound="CN1CCC(O)C(CNC23CC4CC(CC(C4)C2)C3)C1 (stereo unspecified)" meas_value="> 100 µM"
compound="COC(=O)C1=CC(=O)C(C(=O)Nc2ccc(OC)cc2)C(c2ccccc2)O1 (stereo unspecified)" meas_value="> 100 µM"
compound=COCn1c(C)c(C)c2c(=O)oc(=O)[nH]c21 meas_value="> 100 µM"
compound=O=C1Cc2c(-c3ccc(Cl)cc3)cc(-c3ccccc3)nc2-c2ccccc2N1 meas_value="> 100 µM"

Name the recorded TGI of the item COCCNC(=O)C1C(=O)N(CCOC)C(=O)/C1=N/N (stereo unspecified) in your answer.
> 100 µM

Name the recorded TGI of the item O=C(Nc1ccc(Cl)c(Cl)c1)Nc1ccc(Cl)c([N+](=O)[O-])c1 in your answer.
4.38 µM

Name the recorded TGI of the item C=C1C(=O)OC2C1C(OC(=O)/C(=C/C)COC(C)=O)CC1(CO1)C1C(OC(=O)/C(=C/C)CO)C=C(C)C21 (stereo unspecified) in your answer.
15.3 µM

----------
# Test system: SK-MEL-28 melanoma
# assay method text: NCI tumour cell line growth inhibition, 48 h
We begin with a simple list: items and their reported TGI.

Record excerpt, results attached:
molecule="Cc1cccc2c1C(=O)C1(Cc3ccccc3C1=O)C2 (stereo not given)" meas_value="> 100 µM"
molecule=O=[N+]([O-])C(/C(Cl)=C(/Cl)N1CCOCC1)=C1\NCCO1 meas_value="> 100 µM"
molecule="O=C(CC1Sc2ccccc2NC1=O)Nc1cccc(Cl)c1 (stereo not given)" meas_value="89.7 µM"
molecule="O=C(O)CC(NC(=O)Nc1ccc([N+](=O)[O-])cc1)C(=O)Nc1ccc([N+](=O)[O-])cc1 (stereo not given)" meas_value="> 100 µM"
molecule=CC(C)(C)C#C[P+](c1ccccc1)(c1ccccc1)c1ccccc1 meas_value="1.46 µM"
molecule=O=c1ccc2nc(-c3ccccc3)nn(-c3ccccc3)c-2c1 meas_value="3.11 µM"
molecule=NC(=O)C/C=C/CC(N)=O meas_value="> 100 µM"
molecule=O=c1c2ccccc2oc2c1ccc1ncccc12 meas_value="> 100 µM"
molecule=Cc1cc2c(cc1-c1cc3c(cc1C)C(C(C)C)=C(O)C(=O)/C3=C\Nc1nc(-c3ccccc3)cs1)/C(=C/Nc1nc(-c3ccccc3)cs1)C(=O)C(O)=C2C(C)C meas_value="30.4 µM"
molecule="CCCCC1(N=[N+]=[N-])C(=O)c2cccc3c2N(CCC3)C1=O (stereo not given)" meas_value="> 100 µM"

Identify measured TGI obtained with SK-MEL-28 melanoma for O=C(NCC1Nc2ccncc2S(=O)(=O)N1)c1ccc(Br)cc1 (stereo not given) .
> 100 µM

Identify measured TGI obtained with SK-MEL-28 melanoma for COc1cc2c(cc1OC)C1CN3C(=O)CCC3C(O)C1c1cc(OC)c(OC)cc1-2 (stereo not given) .
> 100 µM

----------
We begin with a simple list: items and their reported log10 TGI.
# System: RXF 393 renal
# assay method text: NCI tumour cell line growth inhibition, 48 h
Form field - Quantity: TGI; Unit: µM; Scale: log10

compound="CC(C)c1ccc2c(c1)CCC1C(C)(C)[C@@H](O)CC[C@]21C (stereo not given in full)" meas_value=1.73
compound=O=C1Cc2c(-c3ccc(Cl)cc3)cc(-c3ccccc3)nc2-c2ccccc2N1 meas_value=1.31
compound="COc1cc([C@@H]2c3cc4c(cc3[C@H](OC3OC5COC(c6ccccc6)OC5C(O)C3O)[C@H]3COC(=O)[C@H]23)OCO4)cc(OC)c1OC (stereo not given in full)" meas_value=-0.06
compound=Cc1ccc(CCC(=O)Nc2ncc(Cc3cc(Cl)ccc3Cl)s2)o1 meas_value=0.24

Name the recorded log10 TGI of the item CC(C)OC(=O)c1ccc(NCC2=CC(=O)C=CC2=O)cc1Cl in your answer.
1.68

Name the recorded log10 TGI of the item C#Cc1cccc(NC(=O)Nc2ccccc2NC(=O)CCl)c1 in your answer.
1.42

Name the recorded log10 TGI of the item C=C1C(=O)O[C@@H]2[C@@H]3O[C@@](C)(CC/C=C(\C)CCC[C@@H]2C)[C@H](O)C[C@@H]13 in your answer.
0.55

Name the recorded log10 TGI of the item COc1cc(/C=C2\C[C@H]3[C@@H]4CC=C5C[C@@H](N6CCCC6)CC[C@]5(C)[C@H]4CC[C@]3(C)[C@H]2O)cc(OC)c1OC in your answer.
1.31

Name the recorded log10 TGI of the item CC(C)(C)C#C[P+](c1ccccc1)(c1ccccc1)c1ccccc1 in your answer.
0.14

----------
# Tested on: DLD-1 colon
# assay method text: NCI tumour cell line growth inhibition, 48 h
endpoint name: TGI

molecule=C=CCCc1cc(OC)ccc1CN(C)C(C)(C)CO meas_value="> 100 µM"
molecule="CCS[C@H]1NC(=O)C1[C@H](C)O[Si](C)(C)C(C)(C)C (some centres undefined)" meas_value="> 100 µM"
molecule="CC(C)NC(=O)OCc1nnn2c1C(OC(=O)NC(C)C)CC2 (centres undefined)" meas_value="> 100 µM"
molecule=CC(C)(C)C#C[P+](c1ccccc1)(c1ccccc1)c1ccccc1 meas_value="2.5 µM"
molecule=CO/C(=N\N=C\c1ccc(Cl)cc1)c1ccncc1 meas_value="> 100 µM"

Name the recorded TGI of the item COc1ccc(C(=O)O/N=C2\CCCC\C2=C/c2ccccc2)cc1 in your answer.
> 100 µM

Name the recorded TGI of the item CN1CCC(O)C(CNC23CC4CC(CC(C4)C2)C3)C1 (centres undefined) in your answer.
> 100 µM

----------
# System: A498 renal
# assay method text: NCI tumour cell line growth inhibition, 48 h; in the data active means GI50 below about 0.43 µM; inactive means the rest
Reply using exactly one outcome from active, inactive

cpd_smiles=Clc1ccc(Cl)c(N/N=C\c2c[nH]c3ccccc23)c1 group=inactive
cpd_smiles=Cc1cc(Cl)n2c(nc3ccccc32)c1C#N group=inactive
cpd_smiles=CC(C)Oc1cc(OCC(=O)O)cc(C(=O)N(CCC(N)=O)C(=O)Nc2ccc(C(=O)O)cc2OC(C)C)c1 group=inactive

What call does the record list for CC/C=C/[C@@H]1C=C[C@@H]2CCC[C@H]2[C@@H]1CC[C@H](O)[C@H](C)N ?
inactive

What call does the record list for COc1ccc(NC(=O)c2ccc(NC3=C(Cl)C(=O)N(Cc4ccccc4)C3=O)cc2)cc1 ?
inactive

What call does the record list for CCN(CC)CCCCCCCCNc1c2ccc(Cl)cc2nc2ccc(OC)cc12 ?
inactive

----------
# System: LXFL 529 NSCLC
# assay method text: NCI tumour cell line growth inhibition, 48 h
We begin with a simple list: items and their reported TGI.

Name the recorded TGI of the item CO/C(=N\N=C\c1ccc(Cl)cc1)c1ccncc1 in your answer.
> 100 µM

----------
# System: M19-MEL melanoma
# assay method text: NCI tumour cell line growth inhibition, 48 h
We begin with a simple list: items and their reported TGI.

Record excerpt, results attached:
compound=CC(=O)Oc1c(-c2ccccc2)[nH]c2cc([N+](=O)[O-])c(/C(Cl)=C/c3ccccc3)cc12 meas_value="19.4 µM"
compound="COCCNC(=O)C1C(=O)N(CCOC)C(=O)/C1=N/N (stereo not given)" meas_value="> 100 µM"
compound=O=C(c1ccccc1)c1nnn(Cc2cccc(Cl)c2)c1C(=O)c1ccccc1 meas_value="> 100 µM"
compound=CCc1ccc(Cc2ccc(CC)c(NC(=O)C(=O)Cc3nc4ccccc4nc3C)c2CC)c(CC)c1NC(=O)C(=O)Cc1nc2ccccc2nc1C meas_value="> 100 µM"
compound="O=C(CC1Sc2ccccc2NC1=O)Nc1cccc(Cl)c1 (stereo not given)" meas_value="> 100 µM"

Identify measured TGI obtained with M19-MEL melanoma for CCOC(=O)C(C(=O)c1ccccc1-c1ccccc1C(=O)O)=P(c1ccccc1)(c1ccccc1)c1ccccc1 .
72.8 µM

Identify measured TGI obtained with M19-MEL melanoma for Cc1cc(O)c2c(c1)C[C@@H](O)C1=C2C(=O)c2c(O)ccc(OC3CC(O)C(OC4CC(OC5CCC(OC6CC(O)C(OC7CC(OC8CCC(O)C(C)O8)C(O)C(C)O7)C(C)O6)C(C)O5)C(O)C(C)O4)C(C)O3)c2C1=O (stereo not given in full) .
0.0197 µM

Identify measured TGI obtained with M19-MEL melanoma for CN(C)N=Nc1ccc([N+](=O)[O-])cc1C(N)=O .
> 100 µM

Identify measured TGI obtained with M19-MEL melanoma for Cc1ccc(S(=O)(=O)NCCCN(CCCNS(=O)(=O)c2ccc(C)cc2)S(=O)(=O)c2ccc(C)cc2)cc1 .
> 100 µM

Identify measured TGI obtained with M19-MEL melanoma for Cc1cn(C2CC(O)C(CO)C2C)c(=O)[nH]c1=O (stereo not given) .
> 100 µM
